experiment: in vitro; type: in vitro ADME; details: PBS pH 7.4, 25° C., 5 hours
Assay readout: Permeability Pampa

- Compound: "CCN1CCN(c2ccc(/C(=C(/CCCO)c3ccccc3)c3ccc(C)cc3)cc2)CC1 [Compound 18j]"
  Permeability Pampa: "1.61 10^−6 cm/s"

Consider CC(C)(C)OC(=O)N1CCN(c2ccc(/C(=C(/CCCO)c3ccccc3)c3ccc(Br)cc3)cc2)CC1 [Compound 18n] . Its measured Permeability Pampa is 0.63 10^−6 cm/s

Consider CCN1CCN(c2ccc(/C(=C(/CCCO)c3ccccc3)c3ccc(O)cc3)cc2)CC1 [Compound 18i] . Its measured Permeability Pampa is 1.16 10^−6 cm/s

Consider CC(=O)Nc1ccc(/C(=C(\CCCO)c2ccccc2)c2ccc(C3CCN(C4CC4)CC3)cc2)cc1 [Compound 27c] . Its measured Permeability Pampa is 0.68 10^−6 cm/s

Consider OCCC/C(=C(\c1ccc(O)cc1)c1ccc(N2CCN(C3CCCCC3)CC2)cc1)c1ccccc1 [Compound 22p] . Its measured Permeability Pampa is 0.2 10^−6 cm/s

Consider CC(C)N1CCN(c2ccc(/C(=C(/CCCO)c3ccccc3)c3ccc(Br)cc3)cc2)CC1 [Compound 18e] . Its measured Permeability Pampa is 1.11 10^−6 cm/s

Consider CN1CCN(c2ccc(/C(=C(/CCCO)c3ccccc3)c3ccc([N+](=O)[O-])cc3)cc2)CC1 [Compound 18c] . Its measured Permeability Pampa is 5.73 10^−6 cm/s

Consider Cc1ccc(/C(=C(\CCCO)c2ccccc2)c2ccc(N3CCN(C)CC3)cc2)cc1 [Compound 18f] . Its measured Permeability Pampa is 4.84 10^−6 cm/s

Consider OCCC/C(=C(\c1ccc(O)cc1)c1ccc(C2CCN(C3CC3)CC2)cc1)c1ccccc1 [Compound 22i] . Its measured Permeability Pampa is 0.35 10^−6 cm/s

Consider CC(C)N1CCN(c2ccc(/C(=C(/CCCO)c3ccccc3)c3ccc([N+](=O)[O-])cc3)cc2)CC1 [Compound 18g] . Its measured Permeability Pampa is 4.8 10^−6 cm/s

Consider OCCC/C(=C(\c1ccc(O)cc1)c1ccc(C2CN(C3CC3)C2)cc1)c1ccccc1 [Compound 22d] . Its measured Permeability Pampa is 0.38 10^−6 cm/s

---

We begin with a simple list: items and their reported pIC50.
target: GST-bound ER alpha ligand-binding domain (LBD) (Homo sapiens (Human), UniProt P03372); test: biochemical; conditions: TR-FRET, beta-estradiol 4 nM as agonist; read-out: Binding Assay, IC50 ERα
Sequence (P03372 whole entry, looked up, the tested form may be a part): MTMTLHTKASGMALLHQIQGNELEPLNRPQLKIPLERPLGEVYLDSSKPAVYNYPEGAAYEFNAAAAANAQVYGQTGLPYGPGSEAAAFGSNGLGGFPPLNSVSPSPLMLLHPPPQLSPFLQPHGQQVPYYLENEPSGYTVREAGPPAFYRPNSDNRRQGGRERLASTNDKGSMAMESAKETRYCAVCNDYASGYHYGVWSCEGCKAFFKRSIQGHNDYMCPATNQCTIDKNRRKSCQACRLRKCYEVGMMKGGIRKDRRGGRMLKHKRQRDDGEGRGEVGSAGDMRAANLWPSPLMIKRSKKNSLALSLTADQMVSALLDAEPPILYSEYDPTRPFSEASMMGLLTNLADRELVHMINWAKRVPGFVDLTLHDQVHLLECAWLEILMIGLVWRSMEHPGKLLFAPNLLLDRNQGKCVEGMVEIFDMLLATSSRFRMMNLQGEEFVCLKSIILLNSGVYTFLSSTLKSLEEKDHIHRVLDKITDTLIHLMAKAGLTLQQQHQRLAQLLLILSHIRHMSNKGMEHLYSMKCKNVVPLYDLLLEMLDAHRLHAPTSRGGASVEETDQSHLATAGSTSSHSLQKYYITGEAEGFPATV
pIC50: −log10 of the molar value.

- Compound: "CC(C)N1CCC(c2ccc(/C(=C(/CCCO)c3ccccc3)c3cccc(O)c3)cc2)CC1 [Compound 22m]"
  Value reported: "< 5.00"
- Compound: "CCN1CCN(c2ccc(/C(=C(/CCCO)c3ccccc3)c3ccc(C)cc3)cc2)CC1 [Compound 18j]"
  Value reported: "< 5.00"

Next compound, please.
pIC50 value, target or system GST-bound ER alpha ligand-binding domain (LBD) (Homo sapiens (Human), UniProt P03372), for Cc1ccc(/C(=C(\CCCO)c2ccccc2)c2ccc(N3CCN(C(C)C)CC3)cc2)cc1 [Compound 18b] : < 5.00

---

assay: in vivo; assay type: in vivo; details: rat, IV, 1 mg/kg
Quick rule for you: Vss under 30 L/kg gets 1 (yes), anything else gets 0 (no).

Example entries begin here.
- Compound: "OCCC/C(=C(\\c1ccc(O)cc1)c1ccc(C2CNC2)cc1)c1ccccc1 [Compound 20e]"
  Label value: "0 (no)"
- Compound: "OCCC/C(=C(/c1ccc(C2CCN(C3CC3)CC2)cc1)c1cccc(O)c1)c1ccccc1 [Compound 22r]"
  Label value: "1 (yes)"
- Compound: "CC(C)N1CCN(c2ccc(/C(=C(/CCCO)c3ccccc3)c3ccc(Br)cc3)cc2)CC1 [Compound 18e]"
  Label value: "0 (no)"
- Compound: "CC(C)N1CCC(c2ccc(/C(=C(/CCCO)c3ccccc3)c3cccc(O)c3)cc2)CC1 [Compound 22m]"
  Label value: "1 (yes)"
- Compound: "CC(C)N1CCN(c2ccc(C(=C(CCCO)c3ccccc3)c3ccc(O)cc3)cc2)CC1 [Compound 18a]"
  Label value: "1 (yes)"

Could you now consider this next compound?
In the record for Cc1ccc(/C(=C(\CCCO)c2ccccc2)c2ccc(N3CCN(C(C)C)CC3)cc2)cc1 [Compound 18b] , is Vss less than 30 L/kg? 1 (yes)

---

conditions: 1 μM, 30 minutes, 37° C., NADPH
We begin with a simple list: items and their reported MS(Microsomal Stability) (%) mouse.
Give the value, in units of %, as a plain number.

- Molecule: "CC(C)N1CCC(c2ccc(/C(=C(/CCCO)c3ccccc3)c3cccc(O)c3)cc2)C1 (racemic) [Compound 22u]"
  Assay readout: "MS(Microsomal Stability) (%) mouse"
  Value reported: 17.2
- Molecule: "CC(C)N1CCN(c2ccc(/C(=C(/CCCO)c3ccccc3)c3ccc(N)cc3)cc2)CC1 [Compound 26b]"
  Assay readout: "MS(Microsomal Stability) (%) mouse"
  Value reported: 14.3
- Molecule: "CC(C)N1CCC(c2ccc(/C(=C(/CCCO)c3ccccc3)c3cccc(O)c3)cc2)CC1 [Compound 22m]"
  Assay readout: "MS(Microsomal Stability) (%) mouse"
  Value reported: 24.2

Consider Cc1ccc(/C(=C(\CCCO)c2ccccc2)c2ccc(N3CCN(C)CC3)cc2)cc1 [Compound 18f] . Its measured MS(Microsomal Stability) (%) mouse is 47.6

Consider OCCC/C(=C(/c1ccc(C2=CCN(C3CC3)CC2)cc1)c1cccc(O)c1)c1ccccc1 [Compound 22l] . Its measured MS(Microsomal Stability) (%) mouse is 25.8

Consider Cc1ccc(/C(=C(\CCCO)c2ccccc2)c2ccc(C3CCNCC3)cc2)cc1 [Compound 20k] . Its measured MS(Microsomal Stability) (%) mouse is 81.3

Consider OCCC/C(=C(\c1ccc(O)cc1)c1ccc(N2CCN(C3CCCC3)CC2)cc1)c1ccccc1 [Compound 22n] . Its measured MS(Microsomal Stability) (%) mouse is 37.8

Consider OCCC/C(=C(\c1ccc(O)cc1)c1ccc(C2CCN(C3CC3)CC2)cc1)c1ccccc1 [Compound 22i] . Its measured MS(Microsomal Stability) (%) mouse is 83.6

---

We begin with a simple list: items and their reported IC50.
biological target: hERG channel (Homo sapiens (Human), UniProt Q12809); settings: read-out: hERG IC50; fluorescence polarization assay

Example results:
- Molecule: "CCN1CCN(c2ccc(/C(=C(/CCCO)c3ccccc3)c3ccc(O)cc3)cc2)CC1 [Compound 18i]"
  System: "hERG channel (Homo sapiens (Human), UniProt Q12809)"
  IC50: "> 30 µM"
- Molecule: "Cc1ccc(/C(=C(\\CCCO)c2ccccc2)c2ccc(N3CCN(C(C)C)CC3)cc2)cc1 [Compound 18b]"
  System: "hERG channel (Homo sapiens (Human), UniProt Q12809)"
  IC50: "> 30 µM"

Next molecule, please.
Consider CN1CCN(c2ccc(/C(=C(/CCCO)c3ccccc3)c3ccc(O)cc3)cc2)CC1 [Compound 18d] . Its measured IC50 is > 20 µM

---

We begin with a simple list: items and their reported MS(Microsomal Stability) (%) rat.
settings: 1 μM, 30 minutes, 37° C., NADPH
Respond with the figure and its unit, in that order.

Example results:
- Compound: "CN1CCCC1CCOc1ccc(/C(=C(/CCCO)c2ccccc2)c2ccc(Br)cc2)cc1 (stereo not drawn) [Compound 13d]"
  MS(Microsomal Stability) (%) rat: "59.9%"
- Compound: "Cl.Cl.OCCC/C(=C(\\c1ccc(O)cc1)c1ccc(OCCN2CCNCC2)cc1)c1ccccc1"
  MS(Microsomal Stability) (%) rat: "59.5%"

Next compound, please.
Consider OCCC/C(=C(\c1ccc(O)cc1)c1ccc(C2CN(C3CC3)C2)cc1)c1ccccc1 [Compound 22d] . Its measured MS(Microsomal Stability) (%) rat is 60.2%

---

conditions: 1 μM, 30 minutes, 37° C., NADPH
Assay readout: MS(Microsomal Stability) (%) mouse
Give the value, in units of %, as a plain number.

Example results:
- Compound: "CC(C)N1CCC(c2ccc(/C(=C(/CCCO)c3ccccc3)c3cccc(O)c3)cc2)CC1 [Compound 22h]"
  Assay readout: "MS(Microsomal Stability) (%) mouse"
  Value reported: 16.2
- Compound: "OCCC/C(=C(/c1ccc(C2CCN(C3CC3)CC2)cc1)c1cccc(O)c1)c1ccccc1 [Compound 22r]"
  Assay readout: "MS(Microsomal Stability) (%) mouse"
  Value reported: 24.5

Consider Cl.Cl.OCCC/C(=C(\c1ccc(O)cc1)c1ccc(OCCN2CCNCC2)cc1)c1ccccc1 [Compound 7a] . Its measured MS(Microsomal Stability) (%) mouse is 32.1

Consider CC(C)N1CCC(c2ccc(/C(=C(/CCCO)c3ccccc3)c3ccc(O)cc3)cc2)CC1 [Compound 22k] . Its measured MS(Microsomal Stability) (%) mouse is 23.4

Consider Cc1ccc(/C(=C(\CCCO)c2ccccc2)c2ccc(C3CNC3)cc2)cc1 [Compound 20d] . Its measured MS(Microsomal Stability) (%) mouse is 11.3

Consider Cc1ccc(/C(=C(\CCCO)c2ccccc2)c2ccc(N3CCNCC3)cc2)cc1 [Compound 20b] . Its measured MS(Microsomal Stability) (%) mouse is 28.8
